# test_target: T1, human CAPRIN-1 expressed on the surface of human cancer cells (human, UniProt Q14444 2-709); also: test concentration or dose not given here
# T1 sequence: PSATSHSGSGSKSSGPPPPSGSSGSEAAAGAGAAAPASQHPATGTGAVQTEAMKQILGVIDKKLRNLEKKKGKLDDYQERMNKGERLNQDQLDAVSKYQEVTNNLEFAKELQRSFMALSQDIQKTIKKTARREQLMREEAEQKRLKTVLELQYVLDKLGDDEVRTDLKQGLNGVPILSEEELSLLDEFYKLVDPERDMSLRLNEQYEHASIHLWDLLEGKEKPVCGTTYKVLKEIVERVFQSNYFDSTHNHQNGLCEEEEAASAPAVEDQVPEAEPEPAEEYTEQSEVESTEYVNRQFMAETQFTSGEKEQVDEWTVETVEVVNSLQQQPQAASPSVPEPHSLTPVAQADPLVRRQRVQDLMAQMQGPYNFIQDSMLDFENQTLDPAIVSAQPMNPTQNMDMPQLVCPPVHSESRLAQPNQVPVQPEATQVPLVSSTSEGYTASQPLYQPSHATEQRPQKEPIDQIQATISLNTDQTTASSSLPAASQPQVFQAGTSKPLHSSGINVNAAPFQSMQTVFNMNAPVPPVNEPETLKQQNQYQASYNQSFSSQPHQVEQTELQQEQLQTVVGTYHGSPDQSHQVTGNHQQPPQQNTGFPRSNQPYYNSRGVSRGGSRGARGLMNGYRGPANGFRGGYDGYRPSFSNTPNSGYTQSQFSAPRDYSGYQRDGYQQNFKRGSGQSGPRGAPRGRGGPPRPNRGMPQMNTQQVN
# experiment_notes: cell-based or functional assay
# maps each entry to its ADCC cytotoxic activity (51Cr release) against DLD-1

Check out these entries, answers already filled in.
* human-chicken chimeric monoclonal antibody #4 (antibody, V domains shown) VH: AVTLDESGGGLQTPGGAVSLVCKGSGFTFSSYGMGWVRQAPGKGLEYVAAIRKDGSTNYGPAVKGRATISRDNGQSTVRLQLSNLRAEDTATYYCAKRSHTGVNAAKIDAWGRGTEVIVS VL: ALTQPASVSANPGETVKITCSGASHNYGWFQQKSPGSAPVTVIYSNDKRPSDIPSRFSGSKSGSTATLTITGVQADDEAVYFCGGYNIYGPTFGAGTTLTV | ≥ 15%
* human-chicken chimeric monoclonal antibody #1 (antibody, V domains shown) VH: AVTLDESGGGLQTPGGALSLVCKASGFTFRSHSMFWVRQAPGKGLEYVAGIYGVGRSIRYGSAVKGRATMSRDNGQSTVRLQLNNLRAEDTATYYCAKSGYFSNSRYWDSGAYFIDAWGHGTEVIVS VL: ALTQPASVSANPGETVEITCSGGYSNYGWYQQKSPGSAPVTVIYYNDKRPSDIPSRFSGSKSGSTATLTITGVQAEDEAVYFCGGYDSSTDAGIFGAGTTLTV | ≥ 15%

# context switch: different binder, same ADCC cytotoxic activity (51Cr release) against DLD-1
Inquiry: # query: ADCC cytotoxic activity (51Cr release) against DLD-1 of entry human-chicken chimeric monoclonal antibody #2 (antibody, V domains shown) VH: AVTLDESGGGLQTPGGALSLVCKASGFTFRSHSMFWVRQAPGKGLEYVAGIYGVGRSIRYGSAVKGRATMSRDNGQSTVRLQLNNLRAEDTGTYYCAKSGYFSNRRYWDSGAYFIDAWGHGTEVIVS VL: ALTQPASVSANLGGTVEITCSGGYSNYGWYQQKSPGSAPVTVIYYNDKRPSDIPSRFSGSKSGSTGTLTITGVRAEDEAVYYCGGYDSSTDAGIFGAGTTLTV
Reply text: ≥ 15%

Recorded values, source patent US20140186359A1.
